Where these numbers come from: a melting point compilation (Tetko et al.; mined from patent text by program, amines drawn as free bases though some values may be those of a salt)

The following compounds are listed with their measured melting point values.

As a guide, the following entries are already answered.
{"compound": "NC(=O)C1=C(S(=O)Cc2ccccc2)CCC1 (stereo not given)", "melting point": "174 °C"}
{"compound": "CNc1nc(Nc2ccc(Cl)c(Cl)c2)ncc1N1C(=O)CNC1=O", "melting point": "301 °C"}
{"compound": "N#Cc1ccc(-c2cccc(OC3SCC(O)C(O)C3O)c2)cn1 (stereo not given)", "melting point": "179 °C"}
{"compound": "COC(=O)C1=C(C)NC(C)=C(c2nc(CS(=O)(=O)Cc3ccccc3)no2)C1c1cccc([N+](=O)[O-])c1 (stereo not given)", "melting point": "227 °C"}
{"compound": "C=CCc1ccc2c(c1O)CCC(=O)N2c1ccccc1", "melting point": "177 to 178 °C"}

Measured melting point of Cc1ccccc1S(=O)(=O)n1c(CCCC(=O)O)cc2nc(Cl)ccc21 : 161 °C

Measured melting point of CC1(C)C(=O)N(c2ccc(C#N)c(C(F)(F)F)c2)C(=O)N1CC=CCN1C(=O)N(c2ccc(C#N)c(C(F)(F)F)c2)C(=O)C1(C)C : 188 to 190 °C

Measured melting point of CC(=O)c1c(C)[nH]c(-c2ccncc2)c1C : 205 to 207 °C

====

The following molecules are listed with their measured melting point values.

As a guide, the following entries are already answered.
{"molecule": "COc1ccc(CCNC(=O)Nc2ccccc2CCc2cc(C(C)(C)C)c(O)c(C(C)(C)C)c2)cc1", "melting point": "148 to 149 °C"}
{"molecule": "NC1=NC(c2ccc(OC(F)F)cc2)(c2cccc(-c3cccnc3F)c2)C2=NCC3(COC3)CN12 (centres undefined)", "melting point": "96 to 107 °C"}
{"molecule": "N#CN1CCc2cccc(Cl)c2CC1", "melting point": "81 to 82 °C"}
{"molecule": "CC1(C)CCC(C)(C)c2cc(C(=O)CNc3ccc(C(=O)O)cc3)ccc21", "melting point": "168 to 169 °C"}
{"molecule": "CC(C)(C)OC(=O)Nc1cc(N2CCC(OC3CCCCO3)CC2)c(-c2ccc(F)cc2)cc1NC(=O)CC(=O)c1cccc(-n2ccnc2)c1 (racemic)", "melting point": "129 to 132 °C"}

Measured melting point of COc1ccc(S(=O)(=O)Oc2cccc(OS(=O)(=O)c3ccc(OC)cc3)c2)cc1 : 81 to 84 °C

====

The following compounds are listed with their measured melting point values.

{"compound": "CCOC(=O)C1CCc2cc(O)c(C(C)=O)cc2C1 (stereo not drawn)", "melting point": "73 to 75 °C"}
{"compound": "COc1cc(C=C(C)[N+](=O)[O-])c(OC)c(C)c1C", "melting point": "76 to 81 °C"}

Measured melting point of CCOC(=O)NN=Cc1c[nH]c(COC)n1 : 186 to 190 °C

Measured melting point of CN(N)C(=O)NC1c2ccccc2Oc2ccccc21 : 173 to 176 °C

====

measurementKind: melting point

As a guide, the following entries are already answered.
{"molecule": "Cc1cccc(C2(C#N)C3CC4CC(C3)CC2C4)c1 (stereo not drawn)", "measuredResult": "85 to 86 °C"}
{"molecule": "O=C(CNc1ccc2[nH]c(=O)[nH]c2c1)N1CCC(Cc2ccccc2)CC1", "measuredResult": "237 to 238 °C"}
{"molecule": "Cc1oc(-c2ccc(C(F)(F)F)cc2)nc1COc1cccc(C=CC(C)n2oc(=O)[nH]c2=O)c1 (stereo not drawn)", "measuredResult": "104 to 105 °C"}
{"molecule": "Cn1cc(C2=C(c3cn(CCCNc4ncccn4)c4ccccc34)C(=O)NC2=O)c2ccccc21", "measuredResult": "214 to 215 °C"}
{"molecule": "O=C(NCC12CC3CC(CC(C3)C1)C2)c1cc([N+](=O)[O-])ccc1Cl", "measuredResult": "178 °C"}
{"molecule": "Cc1cc(-c2ccc(C(F)(F)F)c(C)c2)nc(-c2cccc(-c3cccc(S(N)(=O)=O)c3)c2)n1", "measuredResult": "222 °C"}
{"molecule": "NC1=NCC(COc2cccc(Cl)c2)O1 (stereo not drawn)", "measuredResult": "128 °C"}
{"molecule": "COC(=O)c1coc2ccc(OCc3ccccc3)cc2c1=O", "measuredResult": "88 to 89 °C"}
{"molecule": "COCCOc1cc2c(cc1-c1ccccc1F)NC(=O)CC(c1cccc(C#N)c1)=N2", "measuredResult": "211 to 213 °C"}
{"molecule": "CSCc1cn(C)c2cc(Cl)ccc2c1=O", "measuredResult": "163 to 164 °C"}

Measured melting point of CC1(C)CCC(=O)Nc2ccc([N+](=O)[O-])cc21 : 208 °C

Measured melting point of CC1NC(=O)NN=C1c1ccc(Br)cc1 (stereo not drawn) : 214 to 215 °C

Measured melting point of CCCCCCCCCCNC(=O)c1ccc([N+](=O)[O-])cc1 : 89 to 91 °C

Measured melting point of O=C(N[C@H]1CC[C@H](CCN2CCN(c3nccc4c3OCC4)CC2)CC1)c1ccnc2ccccc12 : 222 °C

Measured melting point of OCCNc1c(Br)cnc2cc(C(F)(F)F)ccc12 : 140 to 141 °C

Measured melting point of CCOC(=O)c1c(C(F)(F)F)nc(C(F)(F)Cl)c(C(=O)O)c1OCC : 81 to 83 °C

Measured melting point of CCOC(=O)Cn1c(=O)n(Cc2ccc(Cl)c(Cl)c2)c(=O)c2c(C)c(Br)sc21 : 166 to 167 °C

Measured melting point of O=C(O)c1ccc(OCCF)cc1 : 135 °C

Measured melting point of CCOc1cc(CC)ccc1C1CCN(CCCCNC(=O)c2ccc(NC(=O)c3ccc(Cl)cc3)cc2)CC1 : 250 °C

Measured melting point of Fc1ccc(-c2[nH]nc(C3=CCN4CCCC4C3)c2-c2ccncc2)cc1 (stereo not drawn) : 209 to 214 °C

Measured melting point of CS(=O)C1C(=O)Nc2ccc(C(F)(F)F)cc21 (stereo not drawn) : 141 to 142 °C

Measured melting point of Cc1cccc(CON2C(C)(C)CC(OC(=O)c3ccccc3)CC2(C)C)c1 : 64 to 65 °C

Measured melting point of COc1cc(CI)ccc1C12CC3CC(CC(C3)C1)C2 : 143 to 144 °C

Measured melting point of CC(C)(C)c1cc(-c2nc3ccc(O)cc3o2)ccc1O : 220 to 222 °C

Measured melting point of CC(C)(C)C(=O)c1ccc(C(=O)NC(=O)c2ccc(F)cc2)cc1 : 100 to 101 °C

Measured melting point of CN(C)Cc1cc(Nc2nncc3ccccc23)cc(CN(C)C)c1O : 195 °C

Measured melting point of COc1ccc(C(=O)n2cccc2Br)c(OC)c1 : 81 to 82 °C

Measured melting point of CC(C)n1nc(-c2cc(C#N)c(C(=O)O)nc2-c2ccccc2)ccc1=O : 196 to 198 °C

Measured melting point of O=C(O)Cc1c(C(=O)c2cc(Cl)ccn2)[nH]c2ccc(Cl)cc12 : 243 to 244 °C

Measured melting point of NC(CCCCNC(=O)OCc1ccccc1)C(=O)Nc1cccc2ccccc12 (stereo not drawn) : 138 to 140 °C

Measured melting point of Clc1cc(-c2ccnc(NCC3CCCO3)n2)ccn1 (stereo not drawn) : 74 to 75 °C

Measured melting point of CCN1C(=O)C(=C(O)Cc2ccccc2)SC1=S : 74 to 76 °C

Measured melting point of Oc1ccc(Cc2cnc3c(-c4cc(-c5ccccc5)cs4)cnn3c2O)cc1 : 287 to 293 °C

====

The following molecules are listed with their measured melting point values.

As a guide, the following entries are already answered.
{"molecule": "CC(C)(C)c1cc(C=O)cc(Cl)c1O", "melting point": "123 °C"}
{"molecule": "CCN(CC)c1ccc(S(=O)(=O)CCCCC(=O)O)cc1", "melting point": "106 to 108 °C"}
{"molecule": "O=c1c(CCCc2cccnc2)cc2cccnc2n1-c1ccc2nsnc2c1", "melting point": "174 °C"}
{"molecule": "CC(C)(C)OC(=O)N1CCN(Cc2nc(-c3cc(C(C)(C)C)c(O)c(C(C)(C)C)c3)cs2)CC1", "melting point": "108 to 109 °C"}
{"molecule": "CC(C(=O)O)N(C(=O)OC(C)(C)C)c1ccc(N)cc1 (stereo unspecified)", "melting point": "128 to 133 °C"}

Measured melting point of ON=C(c1ccccc1)C(O)(c1ccccc1)c1ccccc1 : 150 to 152 °C

Measured melting point of COC(=O)c1coc(CN2C(=O)C3(COc4cc5onc(C)c5cc43)c3ccccc32)n1 (stereo unspecified) : 148 to 152 °C

Measured melting point of O=c1ncn(Cc2ccc(Cl)cc2)c2cc(-c3ccc(OCc4cccnc4)cc3)sc12 : 255 to 257 °C

Measured melting point of COc1ccc(C)cc1NC(=O)Nc1ccc(N2CCN(C(=O)Nc3ccc(OCCO)cc3Cl)CC2)c(F)c1 : 118 to 120 °C

Measured melting point of Nc1ncnc2c1c(-c1cn[nH]c1)nn2Cc1oc2ccc(F)cc2c(=O)c1-c1ccccc1 : 211 to 214 °C

Measured melting point of CN(C)C(=O)COc1ccc(I)cc1 : 63 to 65 °C
